B1: EHEE_rd4_0726 (parent)
chain: DIEITTNGEEDAKRVIKELQKRNLEYHIEVHGNQWVIKVR

variants of: B1; experiment: folding stability dG (cDNA display proteolysis); higher = more stable; conditions: PBS, room temperature
measure name: folding stability dG (kcal/mol)
Report the figure in kcal/mol without appending any unit label.

The examples below pair each entry with its known result.
[[record]]
construct_sequence = "NIEITTNGEEDAKRVIKELQKRNLEYHIEVHGNQWVIKVR [D1N]"
data_value = 2.37

[[record]]
construct_sequence = "DIEITTNGTEDAKRVIKELQKRNLEYHIEVHGNQWVIKVR [E9T]"
data_value = 1.52

[[record]]
construct_sequence = "DIEITTNGEEDAKRVIKELQKRNLEYHIEVHGPQWVIKVR [N33P]"
data_value = 1.78

[[record]]
construct_sequence = "DIEITTNGEEDAKRVIKELQKRNLEYHIEVHWNQWVIKVR [G32W]"
data_value = 0.99

[[record]]
construct_sequence = "DIEITTNGEEDAKRVIKELQKRNLEYHIEVGGNQWVIKVR [H31G]"
data_value = 0.973


Item: DIEITTNGEEDAKRVTKELQKRNLEYHIEVHGNQWVIKVR [I16T] | folding stability dG: 1.25

Item: DVEITTNGEEDAKRVIKELQKRNLEYHIEVHGNQWVIKVR [I2V] | folding stability dG: 2.15

Item: DIEITTNGEEDIKRVIKELQKRNLEYHIEVHGNQWVIKVR [A12I] | folding stability dG: 1.49

Item: DIEITTNGEEDAKRGIKELQKRNLEYHIEVHGNQWVIKVR [V15G] | folding stability dG: -0.213

Item: DIEIRTNGEEDAKRVIKELQKRNLEYHIEVHGNQWVIKVR [T5R] | folding stability dG: 2.92

Item: DIEITTNGEEDAKRVIKLLQKRNLEYHIEVHGNQWVIKVR [E18L] | folding stability dG: 2.65

Item: DIEITTNGEEDAKRVIKEVQKRNLEYHIEVHGNQWVIKVR [L19V] | folding stability dG: 0.98
